- System: HepG2
- ASSAY SUMMARY: Cytotoxicity against human HepG2 cells assessed as reduction in cell viability incubated for 48 hrs by MTT assay
- Assay type: functional, cell-based
- MEASUREMENT SETUP: HepG2, 48 h
PROPERTY NAME: pIC50
Kindly note that pIC50 refers to -log10 of the concentration in mol/L and answer with the value alone.

Worked set:
Data request: Specify the recorded pIC50 for O=C1C(=O)c2ccccc2C2=C1CCCO2 , system: HepG2.
Data returned: 6.04

Data request: Specify the recorded pIC50 for COc1cc(OC)cc(C2C3=C(N=C4N=NNN42)c2ccccc2C(=O)C3=O)c1 (stereo not given) , system: HepG2.
Data returned: 5.93

Data request: Specify the recorded pIC50 for CC1COC2=C(C1)C(=O)C(=O)c1ccccc12 (stereo not given) , system: HepG2.
Data returned: 6.04

Data request: Specify the recorded pIC50 for CC1(C)COC2=C(C1)C(=O)C(=O)c1ccccc12 , system: HepG2.
Data returned: 5.16

As a next step, examine the molecule that follows.
Data request: Specify the recorded pIC50 for O=C1C(=O)c2ccccc2C2=C1CC(O)CO2 (stereo not given) , system: HepG2.
Data returned: 5.12
